procedure-text: Solubility in 100 mM phosphate buffer with titration, 18 h slurry (Table 15)
Format: physicochemical
condition-summary: pH 6.9, aqueous buffer, thermodynamic from solid, ambient, pH after slurry 6.90
measurement-name: solubility at 18 h

Prompt: Using the record for CC1=NS(=O)(=O)c2cc(Cl)ccc2N1 [diazoxide] , report its solubility at 18 h.
Completion: 70 µg/mL

* * *

procedure-text: Bioavailability of diazoxide choline and related molecules
condition-summary: male mice, Oral gavage, single 50 mg/kg dose
Task for the reader: assign each of the following compounds its reported Cmax.
Numbers only, in ng/mL.

Sample records with Cmax:
Prompt: Using the record for O=S1(=O)N=C(NC2CCC2)Nc2ccc(Br)cc21 , report its Cmax.
Completion: 181

Prompt: How about COc1ccc2c(c1)NC(NC(C)C)=NS2(=O)=O ?
Completion: 1560

Prompt: How about O=S1(=O)N=C(NC2CCC2)Nc2ccc(F)cc21 ?
Completion: 24

Now for another entry.
Prompt: Using the record for CC(C)NC1=NS(=O)(=O)c2cc(Cl)c(F)cc2N1 , report its Cmax.
Completion: 80
